testedOn: hOGA (Homo sapiens, UniProt O60502)
Construct: The gene construct encoding the full-length human OGA fused to N-terminal His6-tag; His6 (N); made in house
Sequence (O60502 whole entry, the tested form may be a part): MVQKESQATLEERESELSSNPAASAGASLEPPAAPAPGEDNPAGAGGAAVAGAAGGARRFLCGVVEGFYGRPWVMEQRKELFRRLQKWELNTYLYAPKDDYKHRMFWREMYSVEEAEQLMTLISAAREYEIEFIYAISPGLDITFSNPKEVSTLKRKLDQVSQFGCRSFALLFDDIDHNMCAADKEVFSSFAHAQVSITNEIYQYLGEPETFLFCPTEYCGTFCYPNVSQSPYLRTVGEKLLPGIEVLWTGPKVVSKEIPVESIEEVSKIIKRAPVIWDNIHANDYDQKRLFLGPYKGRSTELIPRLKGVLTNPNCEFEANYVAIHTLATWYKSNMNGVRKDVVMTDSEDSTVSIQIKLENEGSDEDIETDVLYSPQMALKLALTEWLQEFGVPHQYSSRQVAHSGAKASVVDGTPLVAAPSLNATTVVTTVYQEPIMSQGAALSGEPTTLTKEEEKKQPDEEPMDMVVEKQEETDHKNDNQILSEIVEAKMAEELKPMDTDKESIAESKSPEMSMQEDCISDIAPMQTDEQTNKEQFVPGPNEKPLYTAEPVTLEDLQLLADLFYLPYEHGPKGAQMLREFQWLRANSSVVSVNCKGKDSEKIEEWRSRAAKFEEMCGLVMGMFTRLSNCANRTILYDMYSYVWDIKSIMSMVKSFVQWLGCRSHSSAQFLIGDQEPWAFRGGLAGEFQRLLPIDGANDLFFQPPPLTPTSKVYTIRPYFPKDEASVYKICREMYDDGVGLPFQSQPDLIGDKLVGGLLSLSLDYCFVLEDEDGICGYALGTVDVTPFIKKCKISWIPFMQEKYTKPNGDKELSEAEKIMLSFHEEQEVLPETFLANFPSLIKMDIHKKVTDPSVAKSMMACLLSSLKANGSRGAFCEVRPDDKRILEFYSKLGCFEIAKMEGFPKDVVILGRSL
runDescription: hOGA inhibition, 4-MU-GlcNAc fluorescent substrate, Dixon plots (competitive model)
Type: biochemical
conditions: ratio defines selectivity towards hOGA
observationType: Ki(hHexB)/Ki(hOGA)
Give bare numbers.

compound: CC(=O)N[C@H]1C(=NNS(=O)(=O)c2ccc(C)cc2)O[C@H](CO)[C@@H](O)[C@@H]1O
quantitativeReadout: 0.27

compound: CC(=O)N[C@H]1/C(=N/OC(=O)Nc2ccccc2)O[C@H](CO)[C@@H](O)[C@@H]1O
quantitativeReadout: 0.8

Now take the following molecule into account.
Task: Provide measured Ki(hHexB)/Ki(hOGA) value, entry: CC(=O)N[C@H]1C(=NNC(=O)Nc2ccc3ccccc3c2)O[C@H](CO)[C@@H](O)[C@@H]1O
Result: 1.3
